This collection of values is drawn from patent US20170101466A1.

Target: T1, soluble human BLyS (human, UniProt Q9Y275 134-285)
T1 construct: also called hBLyS; human BAFF (BLyS)
Assay: blocking of biotinylated soluble hBLyS binding to immobilized mBR3
Listed here: items and their measured IC50.
Form entry: value (nM) — number only.

Some entries whose results are on file:
>  <BINDER>
6C10 IgG expressed in HEK293 cells (antibody, V domains shown, IgG from HEK293-FreeStyle cells; also called 6C10 (293)) VH: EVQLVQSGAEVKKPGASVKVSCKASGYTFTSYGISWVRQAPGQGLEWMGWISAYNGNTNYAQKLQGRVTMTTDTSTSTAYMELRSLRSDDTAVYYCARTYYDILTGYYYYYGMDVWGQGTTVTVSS VL: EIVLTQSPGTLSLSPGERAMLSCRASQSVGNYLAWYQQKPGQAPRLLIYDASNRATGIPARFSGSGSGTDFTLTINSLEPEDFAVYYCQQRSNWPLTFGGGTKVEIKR

>  <IC50 (nM)>
0.33

$$$$
>  <BINDER>
9F8 IgG expressed in HEK293 cells (antibody, V domains shown, IgG from HEK293-FreeStyle cells) VH: QVQLQQSGAEVKKPGASVKVSCKASGYTFTSYYMHWVRQAPGQGLEWMGWINAGNGNTKYSQKFQGRVTITRDTSASTAYMELSSLRSEDTAVYYCARDNLSYDILTGYSFGGWFDPWGQGTLVTVSS VL: QSALTQPASVSGSPGQSITISCTGTSSDIGRYNYVSWYQQRPGRAPKVIIYDVSSRPSGVSKRFSASKSGNTASLTISGLQAEDEAVYYCSSYTRITTLYVFGPGTKVTVLG

>  <IC50 (nM)>
5.31

$$$$

Then there is this binder:
Challenge: Fill in reported IC50 for this entry: 1B5 IgG expressed in HEK293 cells (antibody, V domains shown, IgG from HEK293-FreeStyle cells) VH: QVQLQESGPGLVEPSETLSLTCTVSGGSISGRNYYWGWIRQSTGKGLEWIGSIYYSGSTYYNPSLKSRVTISVDTSKNQFSLKLSSVTAADTAVYYCARDLANYDILTGYYRARGAFDIWGQGTMVTVSS VL: QSALTQPASVSGSPGQSITISCTGTSSDVGGYNYVSWYQQHPGKAPKLMIYDVNKRPSGVPDRFSGSKSANTASLTVSGLQAEDEADYYCSSYTAGGNWVFGGGTKLTVLG
Response given: 21
